molecular target: DNA dC->dU-editing enzyme APOBEC-3A (Homo sapiens); assay: Dose Response confirmation of small molecule APOBEC3A DNA Deaminase Inhibitors via a fluorescence-based single-stranded DNA deaminase assay. [Related pubchem assays (depositor defined):AID493011, AID493024]; type: functional
Sequence (P31941 whole entry): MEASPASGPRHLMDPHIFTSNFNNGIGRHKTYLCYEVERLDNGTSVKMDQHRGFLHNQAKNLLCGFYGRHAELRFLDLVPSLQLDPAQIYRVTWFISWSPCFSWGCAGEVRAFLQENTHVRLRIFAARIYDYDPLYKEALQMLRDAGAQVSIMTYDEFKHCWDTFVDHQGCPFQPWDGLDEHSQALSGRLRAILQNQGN
Activity calls are given as the source filed them.
parameter: IC50

compound: CN1CCC(N(C)S(=O)(=O)c2ccc(NC(=O)c3ccc(S(=O)(=O)N(C)C)cc3)cc2)CC1
value.reported: 13.9 µM (active)
--
compound: COc1cc(Nc2cccc[n+]2C)cc(OC)c1OC
value.reported: 3.48 µM (active)
--
compound: Cc1cccc(C)c1OCC(=O)NCc1nnc(SCC(=O)NC2CCCCC2C)n1C (stereo not drawn)
value.reported: 2.78 µM (active)
--
compound: CC[N+](C)(CC)CC(=O)OCC1C(C)C=C(C)CC1C (stereo not drawn)
value.reported: 1.31 µM (active)
--
compound: CC(C)C(NC(=O)c1ccc2c(c1)OCO2)C(=O)N/N=C\c1ccco1 (stereo not drawn)
value.reported: > 100 µM (inactive)
--
compound: CC[C@]12C=CCN3CCC4(c5cc(Br)c(OC)cc5N(C)C4[C@@](O)(C(=O)OC)[C@@H]1OC(C)=O)C32 (stereo partly drawn)
value.reported: 2.14 µM (active)
--
compound: O=C(NCc1ccc2c(c1)OCO2)c1cc2ncc(Br)cn2n1
value.reported: 9.82 µM (active)
--
compound: Nc1ccc(Nc2ccccc2)c(S(=O)(=O)O)c1
value.reported: 16.5 µM (active)
--
compound: CCN1C(NCCCCO)=N[C@@H](c2cccc(C(F)(F)F)c2)C(C(=O)OC)=C1C
value.reported: 2.59 µM (active)
--
compound: CSc1nnc(SCc2nc3sc(C(=O)O)c(C)c3c(=O)[nH]2)s1
value.reported: 14 µM (active)
--
compound: CCN(CC)CCNC(=O)c1ccc(NC(=O)C2CC(=O)N(c3ccc4c(c3)OCCO4)C2)cc1 (stereo not drawn)
value.reported: 7.53 µM (active)
--
compound: O=C(NCCOc1ccccc1)c1nc[nH]n1
value.reported: 6.18 µM (active)
--
compound: COc1ccc(C(=O)OCC[N+]2(C)CCOCC2)cc1
value.reported: 1.97 µM (active)

###

Reported EC50 values for a set of molecules
biological target: RNA-binding protein pos-1 (Caenorhabditis elegans); assay: disruptors of C. elegans POS-1 RNA interaction – biochemical, fluorescence polarization, dose response (AID 1964);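 note: purified POS-1 fused to maltose binding protein made in E. coli; potency of compounds blocking POS-1 binding to fluorescent RNA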
Sequence (G5EF15 whole entry, the tested form may be a part): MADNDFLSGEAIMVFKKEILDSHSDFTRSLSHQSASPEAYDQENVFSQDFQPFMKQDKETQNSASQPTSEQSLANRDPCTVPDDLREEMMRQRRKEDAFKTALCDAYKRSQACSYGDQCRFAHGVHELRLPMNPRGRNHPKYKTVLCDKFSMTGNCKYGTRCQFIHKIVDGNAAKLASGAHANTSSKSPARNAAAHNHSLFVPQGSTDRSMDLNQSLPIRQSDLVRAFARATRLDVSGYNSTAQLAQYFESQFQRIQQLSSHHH
Active and inactive are the calls of the source.

molecule: CCCN1CC=C2C(C#N)=C(N)C(C#N)(C#N)C(c3cc(OC)ccc3OC)C2C1 (stereo not given)
EC50: 27.9 µM (active)
--
molecule: Cc1cccc(C)c1NC(=O)NN=C1CCCCC1
EC50: > 300 µM (not active)
--
molecule: CN(C)c1ccc(/N=C/c2nc(-c3ccccc3)oc2O)cc1
EC50: 5.7 µM (active)
--
molecule: Cc1c(C(=O)O)cccc1-n1c(C)cc(/C=C2\C(=O)NC(=O)N(c3ccc4c(c3)OCO4)C2=O)c1C
EC50: > 300 µM (not active)
--
molecule: COc1ccc(C=C2C(=O)OC(C)(C)OC2=O)cc1OC
EC50: > 300 µM (not active)

###

target: Microphthalmia-associated transcription factor (Homo sapiens); assay: reducers of TRPM1 reporter luminescence, concentration series – cell-based, SK-MEL-5, cherry-picked, set 3, MITF inhibitor project, dose response (AID 493073); type: functional;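 note: SK-MEL-5 melanoma cells with luciferase driven by the MITF target TRPM1 promoter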
Sequence (O75030 whole entry): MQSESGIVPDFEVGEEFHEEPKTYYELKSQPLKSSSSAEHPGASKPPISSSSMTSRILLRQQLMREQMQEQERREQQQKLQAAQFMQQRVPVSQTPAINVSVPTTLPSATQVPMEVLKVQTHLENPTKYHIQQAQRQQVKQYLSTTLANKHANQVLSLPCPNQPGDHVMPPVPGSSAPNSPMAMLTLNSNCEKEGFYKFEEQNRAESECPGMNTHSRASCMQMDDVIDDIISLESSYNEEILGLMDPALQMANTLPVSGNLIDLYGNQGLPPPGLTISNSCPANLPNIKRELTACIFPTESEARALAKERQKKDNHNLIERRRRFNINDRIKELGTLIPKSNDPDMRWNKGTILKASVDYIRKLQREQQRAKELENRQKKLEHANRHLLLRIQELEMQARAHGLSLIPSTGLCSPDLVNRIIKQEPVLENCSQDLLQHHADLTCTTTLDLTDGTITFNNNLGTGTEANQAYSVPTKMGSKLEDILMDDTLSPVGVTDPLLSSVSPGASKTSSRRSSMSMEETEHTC
Active and inactive are the calls of the source.
Reported AC50 values for a set of compounds

smiles.representation: Clc1cccc(-c2nc(-c3ccccn3)no2)c1
AC50: 5.92 µM (active)

smiles.representation: O=C1NC(=O)C(=Cc2ccc(-c3cc(Cl)ccc3[N+](=O)[O-])o2)C(=O)N1
AC50: 17.2 µM (active)

smiles.representation: Cc1cc(NC(=O)c2cncc(Br)c2)ccc1NC(=O)c1cc2ccccc2o1
AC50: 10.4 µM (active)

smiles.representation: CC(=O)c1cccc(NC(=O)/C=C/c2ccc([N+](=O)[O-])s2)c1
AC50: 7.16 µM (active)

smiles.representation: Cc1cc(C(=O)CCl)c(C)n1CCc1ccc(F)cc1
AC50: 4.25 µM (active)

// provenance: ChEMBL document CHEMBL1201862
